# tgt: human melanocortin 3 receptor (MC3R) (human, UniProt P41968 1-323)
# Sequence (P41968 whole entry): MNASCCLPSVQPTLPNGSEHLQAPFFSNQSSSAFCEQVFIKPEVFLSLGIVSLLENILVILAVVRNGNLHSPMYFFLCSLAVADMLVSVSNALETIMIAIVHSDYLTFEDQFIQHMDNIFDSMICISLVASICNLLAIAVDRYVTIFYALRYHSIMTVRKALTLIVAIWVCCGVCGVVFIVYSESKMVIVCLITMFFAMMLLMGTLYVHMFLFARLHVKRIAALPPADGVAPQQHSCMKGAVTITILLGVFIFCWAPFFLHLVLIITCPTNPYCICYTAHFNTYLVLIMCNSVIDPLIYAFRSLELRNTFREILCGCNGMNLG
# experimental protocol: cell-based or functional assay
Positions of bridges follow the written chain, without caps; N, C: chain ends. Non-standard residues stand in square brackets, D forms with d. d2Nal = N[C@H](Cc1ccc2ccccc2c1)C(=O)O; Nle = CCCC[C@H](N)C(=O)O
measurement name: IC50 (cAMP by HTRF, antagonist dose-response) (µM)
Kindly answer with a numeric value in µM, unit omitted.

- Ac-[Nle]DP[d2Nal]RWK[dV][dP]-NH2 (SMILES CCCC[C@H](NC(C)=O)C(=O)N[C@@H](CC(=O)O)C(=O)N1CCC[C@H]1C(=O)N[C@H](Cc1ccc2ccccc2c1)C(=O)N[C@@H](CCCNC(=N)N)C(=O)N[C@@H](Cc1c[nH]c2ccccc12)C(=O)N[C@@H](CCCCN)C(=O)N[C@@H](C(=O)N1CCC[C@@H]1C(N)=O)C(C)C) [A1]: 3.66

Lab note: next binder to report on.
Input line: For Ac-[Nle]DP[d2Nal]RWK[dV][dP]-NH2 (lactam 2-7) [TCMCB07] , write its IC50 (cAMP by HTRF, antagonist dose-response).
Output line: 0.0434
